biological target: RecQ-like DNA helicase BLM (Homo sapiens) (UniProt P54132); assay: qHTS Validation Assay for Inhibitors of Bloom's syndrome helicase (BLM) (AID 2364); conditions: BLM helicase DNA unwinding, fluorescence, in vitro; series mostly up to 57.1 µM
Sequence (P54132 whole entry, looked up): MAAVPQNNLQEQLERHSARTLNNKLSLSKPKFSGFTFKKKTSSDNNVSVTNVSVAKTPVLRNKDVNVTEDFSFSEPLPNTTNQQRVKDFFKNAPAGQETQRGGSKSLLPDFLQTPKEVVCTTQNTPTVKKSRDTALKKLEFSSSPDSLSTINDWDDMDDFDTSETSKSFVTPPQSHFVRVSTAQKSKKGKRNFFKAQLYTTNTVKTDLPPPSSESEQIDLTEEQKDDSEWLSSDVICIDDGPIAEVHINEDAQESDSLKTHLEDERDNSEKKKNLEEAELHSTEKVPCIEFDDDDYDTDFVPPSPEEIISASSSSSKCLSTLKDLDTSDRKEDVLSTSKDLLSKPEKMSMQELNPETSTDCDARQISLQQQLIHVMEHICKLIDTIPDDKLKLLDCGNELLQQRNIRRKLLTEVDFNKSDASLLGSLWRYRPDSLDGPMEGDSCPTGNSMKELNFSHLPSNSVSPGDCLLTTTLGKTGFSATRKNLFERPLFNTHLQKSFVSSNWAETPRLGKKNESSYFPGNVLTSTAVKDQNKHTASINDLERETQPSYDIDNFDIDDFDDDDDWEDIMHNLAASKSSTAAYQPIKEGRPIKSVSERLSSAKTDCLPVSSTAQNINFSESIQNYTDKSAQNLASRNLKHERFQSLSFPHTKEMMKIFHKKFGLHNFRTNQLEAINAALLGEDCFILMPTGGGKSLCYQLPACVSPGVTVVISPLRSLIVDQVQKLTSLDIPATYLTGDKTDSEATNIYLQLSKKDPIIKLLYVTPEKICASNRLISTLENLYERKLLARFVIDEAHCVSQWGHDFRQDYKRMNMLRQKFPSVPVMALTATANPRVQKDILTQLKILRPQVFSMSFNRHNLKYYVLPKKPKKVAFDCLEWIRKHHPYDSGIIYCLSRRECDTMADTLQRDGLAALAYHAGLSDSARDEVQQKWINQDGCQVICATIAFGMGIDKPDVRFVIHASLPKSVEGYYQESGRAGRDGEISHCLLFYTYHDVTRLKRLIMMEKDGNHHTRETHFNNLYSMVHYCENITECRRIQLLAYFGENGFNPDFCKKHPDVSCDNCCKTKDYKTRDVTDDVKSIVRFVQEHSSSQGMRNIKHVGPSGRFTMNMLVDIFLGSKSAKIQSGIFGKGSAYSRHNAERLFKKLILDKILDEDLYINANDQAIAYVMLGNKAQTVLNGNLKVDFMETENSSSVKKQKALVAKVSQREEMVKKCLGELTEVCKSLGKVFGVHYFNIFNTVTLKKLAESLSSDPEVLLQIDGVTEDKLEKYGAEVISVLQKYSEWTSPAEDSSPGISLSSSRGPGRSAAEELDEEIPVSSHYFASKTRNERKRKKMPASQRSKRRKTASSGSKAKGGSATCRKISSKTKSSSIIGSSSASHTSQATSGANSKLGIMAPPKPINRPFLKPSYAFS
Results filed as inconclusive are left out. Calls of active or inactive are those of the source. Calls follow the shape of the dose curve; as a rule, active = well fitted inhibition curve with a large enough effect; inconclusive = small, poorly fitted or top-dose-only effect; inactive = no such curve, though single readings can be large or run the other way.
I would appreciate it if you answered using one of these outcomes: active, inactive

Example entries begin here.
COc1cc(N)c(Cl)cc1C(=O)OCCN1CCCCC1 :: inactive
CCCCOc1cc(CC2CNC(=O)N2)ccc1OC (stereo unspecified) :: inactive
O=C(O)C1CN(CCCP(=O)(O)O)CCN1 (stereo unspecified) :: inactive
NCCCNCCCCNCCCN :: inactive

Query :: Given CNC(=O)c1cc2c(cn1)[nH]c1ccccc12 , state the outcome it received in this test.
Result :: inactive

Query :: Given Nn1nnc2ccccc21 , state the outcome it received in this test.
Result :: inactive

Query :: Given CCCCC[C@H](CC(=O)NO)C(=O)N[C@H](C(=O)N1CCC[C@H]1CO)C(C)C , state the outcome it received in this test.
Result :: inactive

----------
biological target: ATPase family AAA domain-containing protein 5 (Homo sapiens); assay: Validation screen for small molecules that inhibit ELG1-dependent DNA repair in human embryonic kidney (HEK293T) cells expressing luciferase-tagged ELG1 (AID 493107); conditions: HEK293T ELG1-luciferase level, luminescence, 5-fluorouridine co-treatment, 16 h; series mostly up to 46.1 µM; also: nearly all actives have a fitted effect of over 70% in size
Inconclusive results are not listed. Active and inactive are the calls of the source. Calls come from the whole dose curve; as a rule, active = well fitted inhibition curve with a large enough effect; inconclusive = small, poorly fitted or top-dose-only effect, or effect the other way; inactive = flat fitted curve, though single readings scatter.
I would appreciate it if you answered using one of these outcomes: active, inactive

Query :: Given Cc1ccccc1/C=C/C1=NCCN1 , state the outcome it received in this test.
Result :: inactive

Query :: Given C=CCN1CCc2c(cc(O)c(O)c2Cl)C(c2ccccc2)C1 (centres undefined) , state the outcome it received in this test.
Result :: inactive

Query :: Given COc1ccc(C(=O)NCc2cccnc2)cc1C(=O)NCc1cccnc1 , state the outcome it received in this test.
Result :: inactive

Query :: Given NCC(O)(CS(=O)(=O)O)c1ccc(Cl)cc1 (centres undefined) , state the outcome it received in this test.
Result :: inactive

Query :: Given CCCCCCCCCC[Si](C)(C)CCC(=O)NC(Cc1ccc(C)cc1)c1ccccc1 (centres undefined) , state the outcome it received in this test.
Result :: inactive

Query :: Given CC(C)(CO)Cc1cc(C(C)(C)C)c(O)c(C(C)(C)C)c1 , state the outcome it received in this test.
Result :: inactive

Query :: Given CCCCCC(O)CCCC(=O)O (centres undefined) , state the outcome it received in this test.
Result :: inactive

Query :: Given N#Cc1cc([N+](=O)[O-])c2sc(C(N)=O)[n+]([O-])c2c1 , state the outcome it received in this test.
Result :: active

Query :: Given C[N+](C)(C)CC=O , state the outcome it received in this test.
Result :: inactive

Query :: Given Cc1nc(N=Nc2cc(S(=O)(=O)O)c3cc([N+](=O)[O-])cc(S(=O)(=O)O)c3c2)c(COP(=O)(O)O)c(C=O)c1O , state the outcome it received in this test.
Result :: inactive

Query :: Given CC(N)(Cc1ccc(O)c(O)c1)C(=O)O (centres undefined) , state the outcome it received in this test.
Result :: inactive

Query :: Given NC(N)=[N+]1CCc2ccccc2C1 , state the outcome it received in this test.
Result :: inactive

Query :: Given NC[C@@H]1O[C@H](c2ccccc2)Cc2c1ccc(O)c2O , state the outcome it received in this test.
Result :: inactive

Query :: Given NC1(C(=O)O)CCCCC1 , state the outcome it received in this test.
Result :: inactive

Query :: Given Oc1cc(O)c2c(c1)O[C@H](c1ccc(O)c(O)c1)[C@@H](O)C2 , state the outcome it received in this test.
Result :: inactive

Query :: Given C=C1C[C@@]23CC[C@H]4[C@@](C)(CCC[C@@]4(C)C(=O)O)[C@@H]2CC[C@]1(O)C3 , state the outcome it received in this test.
Result :: inactive

Query :: Given CC(C)(C)c1ccc(/C=C/C(=O)Nc2ccc3c(c2)OCCO3)cc1 , state the outcome it received in this test.
Result :: active

Query :: Given CCOC(=O)C12CC1/C(=N/O)c1ccccc1O2 (centres undefined) , state the outcome it received in this test.
Result :: inactive
